Parameter: IC50. Scope: all listed entries.
tested.target: JAK2 (Homo sapiens, UniProt O60674)
Sequence (O60674 whole entry): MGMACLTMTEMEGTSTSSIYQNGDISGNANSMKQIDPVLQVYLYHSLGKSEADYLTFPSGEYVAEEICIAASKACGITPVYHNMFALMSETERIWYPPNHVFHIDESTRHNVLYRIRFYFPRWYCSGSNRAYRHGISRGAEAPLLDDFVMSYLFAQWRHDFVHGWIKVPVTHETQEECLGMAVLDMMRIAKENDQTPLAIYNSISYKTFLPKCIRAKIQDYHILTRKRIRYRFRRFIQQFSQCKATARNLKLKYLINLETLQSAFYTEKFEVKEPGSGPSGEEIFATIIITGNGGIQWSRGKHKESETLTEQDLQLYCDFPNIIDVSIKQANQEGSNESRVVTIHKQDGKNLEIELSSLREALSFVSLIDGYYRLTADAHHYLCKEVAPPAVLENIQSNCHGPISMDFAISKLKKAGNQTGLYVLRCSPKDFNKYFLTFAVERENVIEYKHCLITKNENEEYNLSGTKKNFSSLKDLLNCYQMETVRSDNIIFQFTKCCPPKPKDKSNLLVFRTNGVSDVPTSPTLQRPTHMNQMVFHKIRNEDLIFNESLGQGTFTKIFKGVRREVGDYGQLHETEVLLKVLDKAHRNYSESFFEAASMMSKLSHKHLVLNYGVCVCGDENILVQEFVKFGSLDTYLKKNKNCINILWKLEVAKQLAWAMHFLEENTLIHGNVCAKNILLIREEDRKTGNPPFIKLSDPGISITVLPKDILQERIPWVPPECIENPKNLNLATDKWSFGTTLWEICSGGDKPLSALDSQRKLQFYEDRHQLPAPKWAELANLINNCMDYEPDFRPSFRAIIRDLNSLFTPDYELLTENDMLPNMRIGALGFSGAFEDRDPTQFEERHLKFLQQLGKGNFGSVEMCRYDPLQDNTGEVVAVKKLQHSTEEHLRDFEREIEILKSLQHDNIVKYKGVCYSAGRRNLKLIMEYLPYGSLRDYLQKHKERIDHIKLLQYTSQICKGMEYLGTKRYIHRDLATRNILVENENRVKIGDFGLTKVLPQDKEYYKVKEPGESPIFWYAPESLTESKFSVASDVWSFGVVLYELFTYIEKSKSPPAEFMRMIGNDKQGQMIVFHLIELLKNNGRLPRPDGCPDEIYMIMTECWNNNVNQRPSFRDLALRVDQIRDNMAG
protocol.text: JAK kinase inhibition assay (EZ Reader, peptide substrate phosphorylation) - JAK2
Assay type: biochemical
cond: JAK2 kinase 1 nM; 8 concentration points, max 10 μM

{"compound": "Cn1cc(Nc2nccc(-c3ccc(NC(=O)CC(F)(F)F)nc3)n2)cn1", "tested.target": "JAK2 (Homo sapiens, UniProt O60674)", "IC50": "0.1 to 1 µM"}
{"compound": "Cn1cc(Nc2nccc(-c3ccc(-n4nccc4C4CC4)cc3)n2)cn1", "tested.target": "JAK2 (Homo sapiens, UniProt O60674)", "IC50": "1 to 10 µM"}
{"compound": "Cn1cc(Nc2nccc(-c3ccc(C(=O)N4CCS(=O)(=O)CC4)cc3)n2)cn1", "tested.target": "JAK2 (Homo sapiens, UniProt O60674)", "IC50": "1 to 10 µM"}
{"compound": "Cn1cc(Nc2nccc(-c3ccc(NC(=O)C4(C)CC4)cc3)n2)cn1", "tested.target": "JAK2 (Homo sapiens, UniProt O60674)", "IC50": "0.1 to 1 µM"}
{"compound": "Cn1cc(Nc2nccc(-c3ccc(CNCC#N)cc3)n2)cn1", "tested.target": "JAK2 (Homo sapiens, UniProt O60674)", "IC50": "1 to 10 µM"}
{"compound": "Cn1cc(Nc2nccc(-c3ccc(C(=O)NC4CC4(F)F)cc3)n2)cn1 (stereo not drawn)", "tested.target": "JAK2 (Homo sapiens, UniProt O60674)", "IC50": "1 to 10 µM"}
{"compound": "Cn1cc(Nc2nccc(-c3ccc(CNCC(F)(F)F)cc3)n2)cn1", "tested.target": "JAK2 (Homo sapiens, UniProt O60674)", "IC50": "1 to 10 µM"}
{"compound": "Cn1cc(Nc2nccc(-c3ccc(NC(=O)C(F)F)cc3)n2)cn1", "tested.target": "JAK2 (Homo sapiens, UniProt O60674)", "IC50": "0.1 to 1 µM"}
{"compound": "Cn1cc(Nc2nccc(-c3ccc(NC(=O)C4CCC4)cc3)n2)cn1", "tested.target": "JAK2 (Homo sapiens, UniProt O60674)", "IC50": "0.1 to 1 µM"}
